IC50 by entry:
Target: CaV3.2 (Homo sapiens)
Construct: expressed in transfected cells; host or cells: unnamed doxycycline-inducible cell line
Sequence (O95180 whole entry): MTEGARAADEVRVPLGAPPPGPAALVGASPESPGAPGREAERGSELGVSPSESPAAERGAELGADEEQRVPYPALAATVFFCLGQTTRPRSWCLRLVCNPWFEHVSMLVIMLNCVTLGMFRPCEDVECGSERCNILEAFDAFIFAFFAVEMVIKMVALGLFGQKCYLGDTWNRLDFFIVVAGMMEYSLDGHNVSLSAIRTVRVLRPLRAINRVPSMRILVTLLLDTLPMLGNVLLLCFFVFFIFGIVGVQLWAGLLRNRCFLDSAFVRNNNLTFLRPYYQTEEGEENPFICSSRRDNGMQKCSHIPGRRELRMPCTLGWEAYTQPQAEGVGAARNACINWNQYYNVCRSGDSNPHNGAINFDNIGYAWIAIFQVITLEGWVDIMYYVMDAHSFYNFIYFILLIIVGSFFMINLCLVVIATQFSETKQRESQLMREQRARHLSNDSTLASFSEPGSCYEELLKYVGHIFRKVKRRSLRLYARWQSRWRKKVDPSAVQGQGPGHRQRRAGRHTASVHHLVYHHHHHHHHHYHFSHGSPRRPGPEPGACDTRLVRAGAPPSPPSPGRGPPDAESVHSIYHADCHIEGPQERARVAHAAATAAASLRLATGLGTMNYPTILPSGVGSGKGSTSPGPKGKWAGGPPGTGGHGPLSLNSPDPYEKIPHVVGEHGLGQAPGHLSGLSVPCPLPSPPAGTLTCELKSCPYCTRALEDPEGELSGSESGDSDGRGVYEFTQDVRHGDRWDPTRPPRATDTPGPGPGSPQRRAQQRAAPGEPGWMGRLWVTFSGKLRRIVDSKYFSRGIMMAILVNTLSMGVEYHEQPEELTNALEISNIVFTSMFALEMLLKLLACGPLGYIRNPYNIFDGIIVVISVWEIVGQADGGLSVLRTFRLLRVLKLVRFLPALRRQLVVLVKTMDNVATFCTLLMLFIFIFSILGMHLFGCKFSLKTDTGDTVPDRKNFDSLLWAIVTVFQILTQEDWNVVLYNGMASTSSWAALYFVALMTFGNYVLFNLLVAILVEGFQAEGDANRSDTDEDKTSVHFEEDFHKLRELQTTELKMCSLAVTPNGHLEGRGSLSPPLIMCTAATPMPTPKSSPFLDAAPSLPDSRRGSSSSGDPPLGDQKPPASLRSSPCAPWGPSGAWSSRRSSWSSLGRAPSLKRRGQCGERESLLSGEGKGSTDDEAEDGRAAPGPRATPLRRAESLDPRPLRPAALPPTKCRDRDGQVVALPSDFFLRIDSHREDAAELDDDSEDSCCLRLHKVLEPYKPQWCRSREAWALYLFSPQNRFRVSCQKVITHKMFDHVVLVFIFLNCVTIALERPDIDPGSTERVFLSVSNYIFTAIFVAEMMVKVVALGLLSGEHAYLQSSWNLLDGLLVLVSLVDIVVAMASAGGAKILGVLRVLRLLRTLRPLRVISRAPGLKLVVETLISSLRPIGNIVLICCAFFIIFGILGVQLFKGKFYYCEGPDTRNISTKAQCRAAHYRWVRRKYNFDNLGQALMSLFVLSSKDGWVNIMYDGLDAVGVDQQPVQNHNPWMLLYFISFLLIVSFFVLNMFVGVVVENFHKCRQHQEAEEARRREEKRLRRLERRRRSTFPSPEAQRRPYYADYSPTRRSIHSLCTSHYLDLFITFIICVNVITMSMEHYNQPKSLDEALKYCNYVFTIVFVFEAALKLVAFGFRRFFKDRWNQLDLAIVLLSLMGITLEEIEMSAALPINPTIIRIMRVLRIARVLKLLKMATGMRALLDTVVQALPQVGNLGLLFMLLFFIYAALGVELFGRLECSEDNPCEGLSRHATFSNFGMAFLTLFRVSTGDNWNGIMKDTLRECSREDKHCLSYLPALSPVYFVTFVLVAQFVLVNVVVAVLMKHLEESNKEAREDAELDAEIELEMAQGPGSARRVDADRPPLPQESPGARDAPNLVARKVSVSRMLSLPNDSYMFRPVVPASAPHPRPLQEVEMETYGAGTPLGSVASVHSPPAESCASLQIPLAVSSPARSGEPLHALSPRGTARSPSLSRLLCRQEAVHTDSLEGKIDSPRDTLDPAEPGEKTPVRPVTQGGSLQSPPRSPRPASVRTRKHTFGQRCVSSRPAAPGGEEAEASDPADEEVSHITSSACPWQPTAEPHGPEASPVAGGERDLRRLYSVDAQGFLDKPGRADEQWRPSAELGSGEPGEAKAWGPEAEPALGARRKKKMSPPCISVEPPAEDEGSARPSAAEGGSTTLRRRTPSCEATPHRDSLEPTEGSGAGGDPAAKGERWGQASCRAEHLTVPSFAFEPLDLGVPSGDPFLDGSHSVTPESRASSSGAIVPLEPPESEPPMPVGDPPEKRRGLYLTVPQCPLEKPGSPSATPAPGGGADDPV
Assay: High-throughput CaV3.2/Kir2.3 T-type FLIPR fluorescent assay
Format: cell-based
Settings: Table 4; Fluo-4 FLIPR; closed or inactivated state not stated
Measured Endpoint: IC50 (nM)

Molecule: O=C1c2cc(C(F)(F)F)nn2CCN1Cc1cccc(S(=O)(=O)c2cccc(C(F)(F)F)c2)c1 [Compound 34]
Measured Endpoint: IC50
Reading: 970

Molecule: O=C(NCc1ccc(S(=O)(=O)c2cccc(C(F)(F)F)c2)cc1)c1ccnn1CC(F)(F)F [Compound 12]
Measured Endpoint: IC50
Reading: 590

Molecule: O=C(NCc1ccc(S(=O)(=O)c2cccc(C(F)(F)F)c2)cc1)c1ccnc(C(F)(F)F)n1 [Compound 9]
Measured Endpoint: IC50
Reading: 1690

* * *

Target: CaV2.2 (Homo sapiens, UniProt Q00975)
Construct: expressed in transfected cells; host or cells: unnamed doxycycline-inducible cell line
Assay: High-throughput CaV2.2/Kir2.3 FLIPR fluorescent assay
Assay type: cell-based
Settings: Table 4; Fluo-4 FLIPR; closed or inactivated state not stated; read-out: FLIPR data CaV2.2
IC50 by entry:
Measured Endpoint: IC50

Molecular String: CS(=O)(=O)c1cc(C(=O)NCc2ccc(S(=O)(=O)c3cccc(C(F)(F)F)c3)cn2)cc(C(F)(F)F)n1
Reading: 0.82 µM
//
Molecular String: CS(=O)(=O)c1nc(C(F)(F)F)ccc1C(=O)NCc1cc(S(=O)(=O)c2cccc(C(F)(F)F)c2)ccn1
Reading: 2.21 µM
//
Molecular String: O=C(NCc1ccc(S(=O)(=O)c2cccc(C(F)(F)F)c2)cn1)c1cnc(C(F)(F)F)nc1
Reading: 1.93 µM
//
Molecular String: O=C(NCc1ccccc1S(=O)(=O)c1cccc(C(F)(F)F)c1)c1ccnc(C(F)(F)F)c1
Reading: 1.21 µM
//
Molecular String: O=C(NCc1ccc(S(=O)(=O)c2cccc(C(F)(F)F)c2)cc1)c1ccnc(C(F)(F)F)c1
Reading: 0.94 µM
//
Molecular String: O=C(NCc1ccc(S(=O)(=O)c2cccc(C(F)(F)F)c2)cc1)[C@@H]1CCCCN1
Reading: 1.45 µM
//
Molecular String: O=C(NCc1ccccc1S(=O)(=O)c1cccc(C(F)(F)F)c1)c1ccc(C(F)(F)F)nc1
Reading: 1.12 µM

* * *

Target: CaV2.2 (Homo sapiens)
Construct: expressed in transfected cells; host or cells: unnamed doxycycline-inducible cell line
Assay: High-throughput CaV2.2/Kir2.3 FLIPR fluorescent assay
Type: cell-based
Conditions: Table 5; Fluo-4 FLIPR; closed or inactivated state not stated; read-out: FLIPR data CaV2.2
Entries whose IC50 is below 1000 nM take 1; entries at or above 1000 nM take -1.

Molecular String: CC(C)(CCN1CCn2nc(C(F)(F)F)cc2C1=O)S(=O)(=O)c1cccc(C(F)(F)F)c1
Assigned Category: 1
--
Molecular String: CC(C)(C(=O)NCc1cccc(S(=O)(=O)c2cccc(C(F)(F)F)c2)c1)S(=O)(=O)c1cccc(C(F)(F)F)c1
Assigned Category: 1
--
Molecular String: CC(C)(CCNC(=O)c1ccc(S(C)(=O)=O)cc1)S(=O)(=O)c1cccc(C(F)(F)F)c1
Assigned Category: -1
--
Molecular String: Cc1nc(C(F)(F)F)ccc1C(=O)NCC(C)(C)S(=O)(=O)c1cccc(C(F)(F)F)c1
Assigned Category: -1
--
Molecular String: Cc1c(C(=O)NCCC(C)(C)S(=O)(=O)c2cccc(C(F)(F)F)c2)ncn(C(C)C)c1=O
Assigned Category: -1
--
Molecular String: COc1ccc(S(=O)(=O)N2CCOCC2)cc1C(=O)NCC(C)(C)S(=O)(=O)c1cccc(C(F)(F)F)c1
Assigned Category: -1
--
Molecular String: CC(C)(C(=O)Nc1ccc(Oc2ccc(F)c(C(F)(F)F)c2)nc1)S(=O)(=O)c1cccc(OC(F)(F)F)c1
Assigned Category: 1
--
Molecular String: CC(C)(N)C(=O)NCCC(C)(C)S(=O)(=O)c1cccc(C(F)(F)F)c1
Assigned Category: -1
--
Molecular String: CC(C)(C(=O)Nc1ccc(Oc2ccc(F)c(Cl)c2)nc1)S(=O)(=O)c1cccc(OC(F)(F)F)c1
Assigned Category: 1
